tested on: triple-negative MDA-MB-231 breast cancer cells; experiment: cells; conditions: Homo sapiens, MDA-MB-231, 72 h, read-out: Cytotoxicity EC50
METRIC: pEC50
To interpret pEC50, take it as minus log10 of a concentration measured in moles per litre.

Name the value of pEC50 reported for C=C(C[C@H](N)C(=O)O)C(=O)Nc1ccccc1 [Compound 3] when tested on triple-negative MDA-MB-231 breast cancer cells.
3.39

Name the value of pEC50 reported for C=C(C[C@H](N)C(=O)O)C(=O)Nc1ccc(F)cc1 [Compound 9] when tested on triple-negative MDA-MB-231 breast cancer cells.
3.35

Name the value of pEC50 reported for CC/C(=C(\c1ccccc1)c1ccc(OCCN(C)C)cc1)c1ccccc1 [Tamoxifen, reference compound] when tested on triple-negative MDA-MB-231 breast cancer cells.
4.51

Name the value of pEC50 reported for O=C(c1cc(Cc2n[nH]c(=O)c3ccccc23)ccc1F)N1CCN(C(=O)C2CC2)CC1 [Olaparib, reference compound] when tested on triple-negative MDA-MB-231 breast cancer cells.
4.01

Name the value of pEC50 reported for C=C(C[C@H](N)C(=O)O)C(=O)NCc1ccc([N+](=O)[O-])cc1 [Compound 6] when tested on triple-negative MDA-MB-231 breast cancer cells.
3.57

Name the value of pEC50 reported for C=C(C[C@H](N)C(=O)O)C(=O)NCc1ccccc1 [Compound 4] when tested on triple-negative MDA-MB-231 breast cancer cells.
3.01

Name the value of pEC50 reported for C=C(C[C@H](N)C(=O)O)C(=O)NCc1ccc(F)cc1 [Compound 5] when tested on triple-negative MDA-MB-231 breast cancer cells.
3.58

Name the value of pEC50 reported for C=C(C[C@H](N)C(=O)O)C(N)=O [Compound 1, (S)-2-amino-4-carbamoylpent-4-enoic acid] when tested on triple-negative MDA-MB-231 breast cancer cells.
3.50

----------
test system: triple-negative MDA-MB-231 breast cancer cells; assay: cells; conditions: Homo sapiens, MDA-MB-231, read-out: cytotoxic EC50
Below: a set of entries, each annotated with reported EC50.

Tell me EC50 reported for O=C(c1cc(Cc2n[nH]c(=O)c3ccccc23)ccc1F)N1CCN(C(=O)C2CC2)CC1 [Olaparib, reference compound]
≤ 100 µM

Let us move to another entry and its EC50.
Tell me EC50 reported for CC/C(=C(\c1ccccc1)c1ccc(OCCN(C)C)cc1)c1ccccc1 [Tamoxifen, reference compound]
≤ 100 µM

----------
experiment: Cytotoxicity (cell death, propidium iodide) in MCF-10A cells; assay type: cell-based; conditions: human, MCF-10A non-cancerous breast cells, 24 h exposure
METRIC: EC50 at 24 h

Tell me EC50 at 24 h reported for C=C(C[C@H](N)C(=O)O)C(=O)N1CCCCC1
> 1000 µM

Tell me EC50 at 24 h reported for CC/C(=C(\c1ccccc1)c1ccc(OCCN(C)C)cc1)c1ccccc1 [Tamoxifen, reference compound]
268 µM

Tell me EC50 at 24 h reported for O=C(c1cc(Cc2n[nH]c(=O)c3ccccc23)ccc1F)N1CCN(C(=O)C2CC2)CC1 [Olaparib, reference compound]
511 µM

Let us move to another entry and its EC50 at 24 h.
Tell me EC50 at 24 h reported for C=C(C[C@H](N)C(=O)O)C(=O)NCc1ccc(F)cc1
796 µM
